Measured values drawn from patent US12324893B2 for this set.

experimentDescription: Effect of filament density, poration energy and filament array size on PK profile (Examples 7-9)
Design: species or system guinea pigs
conditionContext: guinea pig, in vivo, sc, 4 mg, Table 17 # 5: dose 4.00 mg, 4 mJ/filament, 2.0 cm^2, 400 filaments/cm^2; relative bioavailability against SC injection; read-out: Bioavailability ± SE
parameter: bioavailability

Data request, read-out bioavailability, for CN(C)CCc1c[nH]c2ccc(C[C@H]3COC(=O)N3)cc12
105%

###

experimentDescription: Effect of filament density, poration energy and filament array size on PK profile (Examples 7-9)
Set-up: species or system guinea pigs
conditionContext: guinea pig, in vivo, sc, 2 mg, Table 13 # 1: 100 filaments/cm^2, 3 mJ/filament, 1.0 cm^2; 2.00 mg patch; relative bioavailability against SC injection; read-out: Bioavailability ± SE
parameter: bioavailability (%)
Enter your answer as a number in %; do not include the unit.

Fill in: bioavailability of CN(C)CCc1c[nH]c2ccc(C[C@H]3COC(=O)N3)cc12 is ___
11.5

###

experimentDescription: Effect of filament density, poration energy and filament array size on PK profile (Examples 7-9)
Design: species or system guinea pigs
conditionContext: guinea pig, in vivo, topical or ocular, 4 mg, Table 17 # 4: dose 4.00 mg, 4 mJ/filament, filament array area 1.5 cm^2, 400 filaments/cm^2
parameter: Tmax (h)
Only the number, expressed in h, is required.

What Tmax value was documented for this compound, CN(C)CCc1c[nH]c2ccc(C[C@H]3COC(=O)N3)cc12 ?
1.33

###

experimentDescription: Effect of filament density, poration energy and filament array size on PK profile (Examples 7-9)
Design: species or system guinea pigs
conditionContext: guinea pig, in vivo, topical or ocular, 4 mg, Table 17 # 5: dose 4.00 mg, 4 mJ/filament, filament array area 2.0 cm^2, 400 filaments/cm^2
parameter: AUC (ng·h/mL)
# value in ng·h/mL; strip the unit string

Recorded AUC for CN(C)CCc1c[nH]c2ccc(C[C@H]3COC(=O)N3)cc12 , please?
4310

###

experimentDescription: Effect of filament density, poration energy and filament array size on PK profile (Examples 7-9)
Set-up: species or system guinea pigs
conditionContext: guinea pig, in vivo, topical or ocular, 4 mg, Table 17 # 6: dose 4.00 mg, 5 mJ/filament, filament array area 1.5 cm^2, 400 filaments/cm^2
parameter: Tmax (min)
The figure you give is taken to be in min; do not add the unit.

For CN(C)CCc1c[nH]c2ccc(C[C@H]3COC(=O)N3)cc12 [Zolmitriptan] , what is its reported Tmax?
45

###

experimentDescription: in vivo
conditionContext: hairless, rat, topical or ocular, 6 mg
parameter: Cmax (ng/mL)
Field format: number, assumed ng/mL, no unit text.

Field request: Cmax | item: CNS(=O)(=O)Cc1ccc2[nH]cc(CCN(C)C)c2c1 [Sumatriptan Succinate]
1400

###

experimentDescription: Effect of filament density, poration energy and filament array size on PK profile (Examples 7-9)
Set-up: species or system guinea pigs
conditionContext: guinea pig, in vivo, topical or ocular, 4 mg, Table 17 # 5: dose 4.00 mg, 4 mJ/filament, filament array area 2.0 cm^2, 400 filaments/cm^2
parameter: Cmax
Show the value, then the unit it is measured in.

Can you share its Cmax? I mean this compound: CN(C)CCc1c[nH]c2ccc(C[C@H]3COC(=O)N3)cc12 [Zolmitriptan]
2200 ng/mL
